Assay: Acute toxicity in mice
Format: in vivo
Conditions: mouse, in vivo, sc; subcutaneous, mice; read-out: LD50

compound	units text	LD50
NC[C@@H]1O[C@H](O[C@H]2[C@@H](O)[C@H](O[C@@H]3[C@@H](O)[C@H](O)C[C@H](N)[C@H]3O[C@H]3O[C@H](CN)[C@@H](O)[C@H](O)[C@H]3N)O[C@@H]2CO)[C@H](N)[C@@H](O)[C@@H]1O [Bu-2659A, 1-deamino-1-hydroxyneomycin B]	mg/kg	720

====

Tested on: Pseudomonas aeruginosa A9930
Assay: MIC by serial two-fold agar dilution, P. aeruginosa A9930
Format: cell-based
Details: Pseudomonas aeruginosa, A9930; Table 7; Mueller-Hinton agar; read-out: MIC
The molecules listed here are annotated with their MIC.
assay readout: MIC (µg/mL)

molecule	target or system	assay readout	units text	modifier sign	obs value
NC[C@@H]1O[C@H](O[C@H]2[C@@H](O)[C@H](O[C@@H]3[C@@H](O)[C@H](O)C[C@H](N)[C@H]3O[C@H]3O[C@H](CO)[C@@H](O)[C@H](O)[C@H]3N)O[C@@H]2CO)[C@H](N)[C@@H](O)[C@@H]1O [Bu-2659C, 1-deamino-1-hydroxyparomomycin I]	Pseudomonas aeruginosa A9930	MIC	µg/mL	=	12.5
NC[C@H]1O[C@H](O[C@H]2[C@H](O[C@@H]3O[C@H](CO)[C@@H](O[C@H]4O[C@@H](CO)[C@@H](O)[C@H](O)[C@H]4N)[C@H]3O)[C@@H](O)[C@H](O)C[C@@H]2N)[C@H](N)[C@@H](O)[C@@H]1O [Bu-2659D]	Pseudomonas aeruginosa A9930	MIC	µg/mL	=	50
NC[C@H]1O[C@H](O[C@H]2[C@H](O[C@@H]3O[C@H](CO)[C@@H](O[C@H]4O[C@H](CN)[C@@H](O)[C@H](O)[C@H]4N)[C@H]3O)[C@@H](O)[C@H](O)C[C@@H]2N)[C@H](N)[C@@H](O)[C@@H]1O [Bu-2659B, 1-deamino-1-hydroxyneomycin C]	Pseudomonas aeruginosa A9930	MIC	µg/mL	>	100
NC[C@@H]1O[C@H](O[C@H]2[C@@H](O)[C@H](O[C@@H]3[C@@H](O)[C@H](O)C[C@H](N)[C@H]3O[C@H]3O[C@H](CN)[C@@H](O)[C@H](O)[C@H]3N)O[C@@H]2CO)[C@H](N)[C@@H](O)[C@@H]1O [Bu-2659A, 1-deamino-1-hydroxyneomycin B]	Pseudomonas aeruginosa A9930	MIC	µg/mL	=	1.6
NC[C@H]1O[C@H](O[C@H]2[C@H](O[C@@H]3O[C@H](CO)[C@@H](O)[C@H]3O)[C@@H](O)[C@H](O)C[C@@H]2N)[C@H](N)[C@@H](O)[C@@H]1O [Bu-2659E, 1-deamino-1-hydroxyribostamycin]	Pseudomonas aeruginosa A9930	MIC	µg/mL	>	100
